- System: CP329
- methodSummary: qHTS profiling for inhibitors of Plasmodium falciparum proliferation (AID 504749); note: nearly all actives have a fitted effect of over 60% in size
- studyConditions: P. falciparum in erythrocytes, SYBR Green DNA, 72 h; series mostly up to 28.7 µM
- Procedure: NIH National Institute of Allergy and Infectious Diseases [NIAID] NIH Chemical Genomics Center [NCGC] […] Because mature erythrocytes lack DNA, only Plasmodium-derived DNA is detected. NCGC Assay Protocol Summary: The SYBR Green viability assay was adapted from a method described previously (Plouffe et al., 2008). […] The following morning, fluorescence intensity at 485(14) nm excitation and 535(25) nm emission wavelengths was measured on an EnVision (Perkin Elmer) plate reader. […]
Records with an inconclusive call do not appear. Active and inactive are the calls of the source. Calls come from the whole dose curve; as a rule, active = well fitted inhibition curve with a large enough effect; inconclusive = small, poorly fitted or top-dose-only effect; inactive = flat fitted curve, though single readings scatter.
Parameter call: string, one of active, inactive

Some entries whose results are on file:
| molecule | categoryLabel |
| --- | --- |
| CCOC(=O)Cc1ccc(-c2ccccc2)cc1 | inactive |
| OCCCNc1ccccc1 | inactive |
| Cc1cc(-c2ccc(N=Nc3ccc4c(S(=O)(=O)O)cc(S(=O)(=O)O)c(N)c4c3O)c(C)c2)ccc1N=Nc1ccc2c(S(=O)(=O)O)cc(S(=O)(=O)O)c(N)c2c1O | inactive |
| OCC(O)CO | inactive |
| CCCCC(CC)COS(=O)(=O)O (stereo not drawn) | inactive |

Enquiry: Short answer needed: outcome of this test for CCOC(=O)C1=C(COCCN)NC(C)=C(C(=O)OC)C1c1ccccc1Cl (stereo not drawn) ?
Return: inactive

Enquiry: Short answer needed: outcome of this test for `COC(=O)[C@@H](N)CS` ?
Return: inactive

Enquiry: Short answer needed: outcome of this test for `COC(=O)CC[C@H](N)C(=O)O` ?
Return: inactive

Enquiry: Short answer needed: outcome of this test for c1ccc2c(c1)OCC(CN1CCCCC1)O2 (stereo not drawn) ?
Return: inactive

Enquiry: Short answer needed: outcome of this test for `CCCCC[C@H](O)/C=C/[C@@H]1[C@H]2C/C(=C/CCCC(=O)O)O[C@H]2C[C@H]1O` ?
Return: inactive

Enquiry: Short answer needed: outcome of this test for `C[C@]12CC[C@@H]3c4ccc(OC(=O)c5ccccc5)cc4CC[C@H]3[C@@H]1CC[C@@H]2O` ?
Return: inactive

Enquiry: Short answer needed: outcome of this test for `CN(Cc1ccccc1)Cc1ccccc1` ?
Return: inactive

Enquiry: Short answer needed: outcome of this test for `CO` ?
Return: inactive

Enquiry: Short answer needed: outcome of this test for `NCC[C@H](O)C(=O)N[C@@H]1C[C@H](N)[C@@H](O[C@H]2O[C@H](CN)CC[C@H]2N)[C@H](O)[C@H]1O[C@H]1O[C@H](CO)[C@@H](O)[C@H](N)[C@H]1O` ?
Return: inactive

Enquiry: Short answer needed: outcome of this test for `O.O.O.O.O.O.O.O=S(=O)([O-])[O-].[Co+2]` ?
Return: active

Enquiry: Short answer needed: outcome of this test for `O=P(O)(O)OC[C@H](O)CO` ?
Return: inactive

----------
- Test system: Hek293T
- methodSummary: Primary qHTS to identify gynecologic anti-cancer compounds using libraries of approved drugs and bioactive compounds (AID 1345084); note: nearly all actives have a fitted effect of over 55% in size
- studyConditions: Gynecologic cancer cell panel viability, ATPlite luminescence, 48 h, control line for the selectivity index; series mostly up to 57.5 µM
Inconclusive results are not listed. The source made the active and inactive calls. The call rests on the fitted dose curve; in most records, active means well fitted cell-killing curve with a large enough effect; inconclusive means small, poorly fitted or top-dose-only effect, or effect the other way; inactive means flat fitted curve, though single readings scatter.
measuredParameter: outcome

| compoundString | measuredParameter | reported |
| --- | --- | --- |
| CCN(CC)CCOCCOC(=O)C(CC)(CC)c1ccccc1 | outcome | inactive |
| C=C1[C@H](CO)[C@@H](O)C[C@@H]1n1cnc2c(=O)[nH]c(N)nc21 | outcome | inactive |
| O=C(O)Cc1cc(I)c(Oc2ccc(O)c(I)c2)c(I)c1 | outcome | inactive |

----------
- methodSummary: Drug repurposing screens with cells derived from glioblastoma tumor samples (AID 1345199); note: nearly all actives have a fitted effect of over 40% in size
- studyConditions: GBM patient neurospheres viability, ATP luminescence, 48 h; at 45.9 µM (top of the series); tumour line B
Inconclusive results are not listed. Where a SMILES comes first, the peptide text is derived from it. Bridges are numbered along the chain shown (N, C = ends). [ ]: non-standard residue; d: D form. The star is where a group is joined. X1 = CC[C@@H](C)[C@@H](N)C1=N[C@H](C(=O)*)CS1; d(aIle) = CC[C@H](C)[C@@H](N)C(=O)O; dOrn = NCCC[C@@H](N)C(=O)O
Threshold check on activity, negative = cell killing: strictly below -10% is True; on or above -10% is False.

| compound | categoryLabel |
| --- | --- |
| C=N[C@@H](C(=O)N[C@@H]1C(=O)N2[C@@H]1SC(C)(C)[C@@H]2C(=O)O)c1ccccc1 | True |
| CC[C@@H](C)[C@@H](N)C1=N[C@H](C(=O)N[C@@H](CC(C)C)C(=O)N[C@@H](CCC(=O)O)C(=O)N[C@@H](C(=O)N[C@@H]2CCCCNC(=O)[C@@H](CC(N)=O)NC(=O)[C@@H](CC(=O)O)NC(=O)[C@@H](Cc3cnc[nH]3)NC(=O)[C@@H](Cc3ccccc3)NC(=O)[C@@H]([C@H](C)CC)NC(=O)[C@@H](CCCN)NC2=O)[C@@H](C)CC)CS1 (X1-LE[d(aIle)][dK][dOrn][dI][dF][dH][dD][dN]; lactam 4-C) | True |
| CC[C@@H]1/C=C(\C)C[C@H](C)C[C@H](OC)[C@H]2O[C@@](O)(C(=O)C(=O)N3CCCC[C@H]3C(=O)O[C@H](/C(C)=C/[C@@H]3CC[C@@H](Cl)[C@H](OC)C3)[C@H](C)[C@@H](O)CC1=O)[C@H](C)C[C@@H]2OC | False |

Enquiry: Is the reported activity, negative = cell killing for `C=Cc1ccc(S(=O)(=O)O)cc1` strictly below -10%?
Return: False

Enquiry: Is the reported activity, negative = cell killing for CCOC(=O)C1=C(COCCN)NC(C)=C(C(=O)OC)C1c1ccccc1Cl (configuration not stated) strictly below -10%?
Return: True

Enquiry: Is the reported activity, negative = cell killing for `CCN(CC)C(=O)[C@]1(c2ccccc2)C[C@@H]1CN` strictly below -10%?
Return: False

----------
- Test system: CP266
- methodSummary: qHTS profiling for inhibitors of Plasmodium falciparum proliferation (AID 504749); note: nearly all actives have a fitted effect of over 60% in size
- studyConditions: P. falciparum in erythrocytes, SYBR Green DNA, 72 h; series mostly up to 28.7 µM
Records with an inconclusive call do not appear. The source made the active and inactive calls. The call rests on the fitted dose curve; in most records, active means well fitted inhibition curve with a large enough effect; inconclusive means small, poorly fitted or top-dose-only effect; inactive means flat fitted curve, though single readings scatter.
Parameter call: string, one of active, inactive

| compound | categoryLabel |
| --- | --- |
| O=P(O)(O)OP(=O)(O)O | inactive |

Enquiry: Short answer needed: outcome of this test for `CC(C)Cc1ccc([C@@H](C)C(=O)NS(C)(=O)=O)cc1` ?
Return: inactive

Enquiry: Short answer needed: outcome of this test for `CC/C=C\C/C=C\C/C=C\C/C=C\C/C=C\CCCC(=O)O` ?
Return: inactive

Enquiry: Short answer needed: outcome of this test for `O=C(O)COc1ccccc1/C=N/NC(=O)c1ccncc1` ?
Return: inactive

Enquiry: Short answer needed: outcome of this test for `OCl` ?
Return: inactive

Enquiry: Short answer needed: outcome of this test for `CCCCCCCCCCCCCCCCCC(=O)OC[C@@H](O)[C@H]1OC[C@H](O)[C@H]1O` ?
Return: inactive

Enquiry: Short answer needed: outcome of this test for `O=C(O)CCC(=O)c1ccc(-c2ccccc2)cc1` ?
Return: inactive

Enquiry: Short answer needed: outcome of this test for `Cc1ncc(C[n+]2csc(CCOP(=O)(O)OP(=O)(O)O)c2C)c(N)n1` ?
Return: inactive

Enquiry: Short answer needed: outcome of this test for `O=C(O)[C@H]1CN(C/C=C/P(=O)(O)O)CCN1` ?
Return: inactive

----------
- targetOrTestSystem: Glutathione peroxidase 1 (Homo sapiens)
- methodSummary: Primary qHTS Assay for Inhibitors of Recombinant Selenoprotein Glutathione Peroxidase 1 (GPX1) (AID 1845191); note: nearly all actives have a fitted effect of over 65% in size
- studyConditions: recombinant GPX1, GR-coupled NADPH fluorescence, 15 min; series mostly up to 48.8 µM
Inconclusive results are not listed. The source made the active and inactive calls. The call rests on the fitted dose curve; in most records, active means well fitted inhibition curve with a large enough effect; inconclusive means small, poorly fitted or top-dose-only effect; inactive means flat fitted curve, though single readings scatter.
Parameter call: string, one of true = active, false = inactive

Some entries whose results are on file:
| compound | categoryLabel |
| --- | --- |
| C=C1[C@H](CO)[C@@H](O)C[C@@H]1n1cnc2c(=O)[nH]c(N)nc21 | false |
| CC/C=C\C/C=C\C/C=C\C/C=C\C/C=C\C/C=C\CCC(=O)O | false |
| CO/N=C(\C(=O)N[C@@H]1C(=O)N2C(C(=O)O)=C(CSc3nnnn3C)CS[C@H]12)c1csc(N)n1 | true |
| NC(=O)c1ccc[n+]([C@@H]2O[C@H](COP(=O)([O-])OP(=O)(O)OC[C@H]3O[C@@H](n4cnc5c(N)ncnc54)[C@H](O)[C@@H]3O)[C@@H](O)[C@H]2O)c1 | false |
| CC(C)C[C@H](NC(=O)[C@@H](COC(C)(C)C)NC(=O)[C@H](Cc1ccc(O)cc1)NC(=O)[C@H](CO)NC(=O)[C@H](Cc1c[nH]c2ccccc12)NC(=O)[C@H](Cc1cnc[nH]1)NC(=O)[C@@H]1CCC(=O)N1)C(=O)N[C@@H](CCCN=C(N)N)C(=O)N1CCC[C@H]1C(=O)NNC(N)=O | false |
| Cc1ncc(C[n+]2csc(CCO)c2C)c(N)n1 | false |

Enquiry: Short answer needed: outcome of this test for CCC(O)c1ccccc1 (centres undefined) ?
Return: false

Enquiry: Short answer needed: outcome of this test for `COc1ccc2c(=O)c(C)c(-c3ccccc3)oc2c1CN(C)C` ?
Return: false

Enquiry: Short answer needed: outcome of this test for `Oc1ccc(/C=C/c2cc(O)cc(O)c2)cc1` ?
Return: false

Enquiry: Short answer needed: outcome of this test for `CCCCC[C@H](O)/C=C/[C@@H]1[C@H]2C/C(=C/CCCC(=O)O)O[C@H]2C[C@H]1O` ?
Return: false

Enquiry: Short answer needed: outcome of this test for `NC[C@H]1O[C@H](O[C@H]2[C@H](O)[C@@H](O[C@H]3O[C@H](CO)[C@@H](O)[C@H](N)[C@H]3O)[C@H](N)C[C@@H]2N)[C@H](N)C[C@@H]1O` ?
Return: false
